Catalogue of self-cleavage readings, one per entry.
B1: CPEB3 Ribozyme (parent)
chain: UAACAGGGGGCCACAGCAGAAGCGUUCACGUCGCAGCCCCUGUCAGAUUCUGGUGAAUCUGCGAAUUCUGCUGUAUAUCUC

Variants of: B1
method_summary: self-cleavage, relative activity (ratio to wild type); higher = more cleavage; in vitro, sequencing
measured_quantity: self-cleavage

[[record]]
sequence_chain = "UAACAGGGGGCCACAGCAGAAGCGUUCACGUCGCAGCCCCUGUCCGAUUCUGGAGAAUCUGCGAAUUCUGCUGUAUAUCUC"
measured_number = 0.45

[[record]]
sequence_chain = "UAACAGGGGGCCACAGCAGAUGCGUUCACGUCGCAGCCCCUGUCAGAUUCUGGUGAAUCUGCGAAUUAUGCUGUAUAUCUC"
measured_number = 0.32

[[record]]
sequence_chain = "UAACAGGGGGCCACAGCAGGAGCGUUCACGUCGCAGACCCUGUCAGAUUCUGGUGAAUCUGCGAAUUCUGCUGUAUAUCUC"
measured_number = 0.41

[[record]]
sequence_chain = "UAACAGGGGGCCACAGCAGAAGCGUUCACGUCGCAGCCCCUGACAGAUUCUGGUGAAACUGCGAAUUCUGCUGUAUAUCUC"
measured_number = 0.72

[[record]]
sequence_chain = "UAACAGGGGGCCACAGCAGAAGCGUUCACGUCCCAGCCCCUGUCGGAUUCUGGUGAAUCUGCGAAUUCUGCUGUAUAUCUC"
measured_number = 0.23

[[record]]
sequence_chain = "UAACUGGGGGCCACAGCAGAAGCGUUCACGUCGCAGCCCCUGUCAAAUUCUGGUGAAUCUGCGAAUUCUGCUGUAUAUCUC"
measured_number = 0.36

[[record]]
sequence_chain = "UAACAGGGGGCCACAGCAGAAGCGUCCACGUCGCAGCCCCUGUCAGGUUCUGGUGAAUCUGCGAAUUCUGCUGUAUAUCUC"
measured_number = 0.48

[[record]]
sequence_chain = "UAACAGGGGGCCAAAGCAGAAGCGUUCACGUCGCAGCCCCUGUCAGAUUCUGGUGAAUCUGCUAAUUCUGCUGUAUAUCUC"
measured_number = 1.14

[[record]]
sequence_chain = "UAACAGGGGGCCACAGCAGAAGCAUUCACGUCGCAGCCCCUGUCAGAUUCUGGUGAAUCUGCGAAUUCUGCUGUAUACCUC"
measured_number = 0.33

[[record]]
sequence_chain = "UAACAGGGGGCCACAGCAGAAGCGUUCACGUUGCAGCCCCUGUCAGAUCCUGGUGAAUCUGCGAAUUCUGCUGUAUAUCUC"
measured_number = 0.21

[[record]]
sequence_chain = "UAACAGGGGGCCACAGCAGAAGCGUUCACAUCGCAGCCCCUGUCAGAUUCUGGUGAAUCUGCGAAAUCUGCUGUAUAUCUC"
measured_number = 0.23

[[record]]
sequence_chain = "UAUCAGGGGGCCACAGCGGAAGCGUUCACGUCGCAGCCCCUGUCAGAUUCUGGUGAAUCUGCGAAUUCUGCUGUAUAUCUC"
measured_number = 0.8

[[record]]
sequence_chain = "UAACAGGGGGCCACAGCAGAAGCGUUCACGUCGCAGCCCCUGUCAGAUACUGGUGAAUCUGCGAAUUCUGCUAUAUAUCUC"
measured_number = 1.28

[[record]]
sequence_chain = "UAACAGGGGGGCACAGCAGAAGCGUUCACGUCGCAGCCCCUGUCAGAUUCUGGUGAAUCUGCGAAUUCUGCUGUAUAUCAC"
measured_number = 0.76

[[record]]
sequence_chain = "UAACAGGGGGCCACAGCAGAAGCGUUCACGUCGCAGCCCCUGUCAGAUUCUGGUGAAUCUGCGAAUUCUGCUGUAUAUCAC"
measured_number = 1.13

[[record]]
sequence_chain = "UAACAGGGGGCCACAGCAGAAGCGUUUACGUCGCAGCCCCCGUCAGAUUCUGGUGAAUCUGCGAAUUCUGCUGUAUAUCUC"
measured_number = 0.2

[[record]]
sequence_chain = "UAACAGGGGGACACAGCAGAAGCGUCCACGUCGCAGCCCCUGUCAGAUUCUGGUGAAUCUGCGAAUUCUGCUGUAUAUCUC"
measured_number = 0.18

[[record]]
sequence_chain = "UAACAGGGGGCCACCGCAGAAGCGUUCACGUCGCAGCCCCUGUCAGAUUCUGGUGAAUCUGCGAAUUCCGCUGUAUAUCUC"
measured_number = 0.26

[[record]]
sequence_chain = "UAACAGGGGGCCACAGCAGAAGCGUUCACGUCGCAGCCCCUGUCAGAUUCUGGAGAAUCUGCGAUUUCUGCUGUAUAUCUC"
measured_number = 0.26

[[record]]
sequence_chain = "UAACAGGGGGCCACAGCAGAAGCGUUCACGUCGCAGCCCCUGACAGAUUCUGGUAAAUCUGCGAAUUCUGCUGUAUAUCUC"
measured_number = 0.77

[[record]]
sequence_chain = "UAACAGGGGGCCACAGCAGAAGCGUUCAGGUCUCAGCCCCUGUCAGAUUCUGGUGAAUCUGCGAAUUCUGCUGUAUAUCUC"
measured_number = 0.09

[[record]]
sequence_chain = "UAACAGGGGGCCACAGCUGAAGCGUUCACGUCGCAGCCCCUGUCAGAUUCUGGUGAAUCUGCGAAUUCUGCUGUAGAUCUC"
measured_number = 0.3


// provenance: the RNAGym collection of RNA variant scans (doi:10.1093/nar/gkz1192)
